- Test system: 786-0
- Test Protocol: NCI tumour cell line growth inhibition, 48 h
The source made the active and inactive calls. No stated cut-off is given here; in the data, active = GI50 up to about 1.1 µM and inactive = higher.
Respond only with the outcome that fits, drawn from active, inactive

> print(dat)
                                   compound  class.assignment
1    Cc1cc2c(C)nn(Cc3ccc(Cl)cc3)c2c(C#N)c1C          inactive
2      Cn1c(O)c(C(=O)Nc2cccs2)c(=O)[nH]c1=S          inactive
3  Cc1ccc(S(=O)(=O)NC(=O)C2=C3SCCN3C(=O)N(S(=O)(=O)c3ccc(C)cc3)C2c2ccccc2)cc1 (configuration not stated)          inactive
4  CC1(C)O[C@@H](CP(c2cccc3ccccc23)c2cccc3ccccc23)[C@H](CP(c2cccc3ccccc23)c2cccc3ccccc23)O1          inactive
5                   CSc1nc2nccnc2c(=O)[nH]1          inactive
6  CC1(C)C2CC(=O)C1(C)C(OCc1ccccc1)C2 (configuration not stated)          inactive
7  O=C(O)c1cc2ccccc2c(/N=N/c2ccc(S(=O)(=O)Nc3ccccn3)cc2)c1O          inactive
8  O=[N+]([O-])c1ccc2c(c1)Nc1c3ccccc3nc3cccc-2c13            active

Outcome? O=C(NNc1cn[nH]c(=O)c1Cl)/C(=C/c1ccc2c(c1)OCO2)NC(=O)c1ccccc1
inactive

Note, next up: Cc1c(N2CCCC2)cc2c(c1NC(=O)c1ccccc1Cl)C(C)(C)CC2(C)C
inactive

Note, next up: CCCc1cn2c(/C=N/NC(=N)N)c(-c3ccc(Cl)c([N+](=O)[O-])c3)nc2s1
inactive

Note, next up: CCOC(=O)C(C(=O)OCC)C1C=CCC2c3ccccc3COCC21 (configuration not stated)
inactive

Note, next up: Cn1c(=O)c2c3ccccc3c(C(=O)c3ccccc3)n2c2ccccc21
inactive

Note, next up: c1cncc(CSc2nc3ccccc3nc2-c2cccs2)c1
inactive

Note, next up: C1=CC(=P(c2ccccc2)(c2ccccc2)c2ccccc2)C=C1
inactive

Note, next up: CCOC(=O)C1=C(C)N(Cc2ccccc2)C2(O)C=CC(O)=C3C(=O)c4ccccc4C(=O)C312 (configuration not stated)
inactive

Note, next up: COc1c2c(cc3c1C(=O)c1c(O)cccc1C3=O)CC(O)CC2 (configuration not stated)
inactive

Note, next up: CCOP(=O)(OCC)C1CCCOC1=O (configuration not stated)
inactive

Note, next up: CCOc1ccccc1Nc1nc(C)c(C(=O)CC(=O)C(=O)Nc2ccccc2)s1
inactive

Note, next up: CC1=CC2=C(C#N)C(=O)OC2(C)C(c2ccccc2)C1 (configuration not stated)
inactive

Note, next up: C=CC(C1=CC(=O)C(OC)=CC1=O)c1ccccc1 (configuration not stated) [4-METHOXYDALBERGIONE]
inactive

Note, next up: CN1CCN(CCn2c3c4ccccc4ccc3c3oc(=O)c4ccccc4c32)CC1
inactive

Note, next up: CC1=C(C)C(=O)C(C2=C(C3=CC(=O)C(C)=C(C)C3=O)C(=O)C(C)=C(C)C2=O)=CC1=O
inactive

Note, next up: COC(=O)C(=O)C(C(=O)C(=O)Nc1ccc([N+](=O)[O-])cc1)c1nc2ccccc2nc1O (configuration not stated)
inactive

Note, next up: N#Cc1ccc(Nc2cnc3ccc(N)cc3n2)cc1
inactive

Note, next up: CO[C@@H]1C[C@H]2N3CC[C@@]2(c2cc4c(cc2C3)OCO4)[C@H]2O[C@@H]12
inactive

Note, next up: Cc1ccc(/C=C/C(=N/NC(=O)N/N=C(/C=C/c2ccc(C)cc2)C(C)C)C(C)C)cc1
inactive

Note, next up: Cc1ccnc2nc(-c3cccc(Cl)c3)cc(O)c12
active

src = ChEMBL document CHEMBL1201862
